# system: T1, EsCas13d, nuclease-dead (Eubacterium siraeum, UniProt B0MS50, R295A;H300A;R849A;H854A)
# T1 sequence: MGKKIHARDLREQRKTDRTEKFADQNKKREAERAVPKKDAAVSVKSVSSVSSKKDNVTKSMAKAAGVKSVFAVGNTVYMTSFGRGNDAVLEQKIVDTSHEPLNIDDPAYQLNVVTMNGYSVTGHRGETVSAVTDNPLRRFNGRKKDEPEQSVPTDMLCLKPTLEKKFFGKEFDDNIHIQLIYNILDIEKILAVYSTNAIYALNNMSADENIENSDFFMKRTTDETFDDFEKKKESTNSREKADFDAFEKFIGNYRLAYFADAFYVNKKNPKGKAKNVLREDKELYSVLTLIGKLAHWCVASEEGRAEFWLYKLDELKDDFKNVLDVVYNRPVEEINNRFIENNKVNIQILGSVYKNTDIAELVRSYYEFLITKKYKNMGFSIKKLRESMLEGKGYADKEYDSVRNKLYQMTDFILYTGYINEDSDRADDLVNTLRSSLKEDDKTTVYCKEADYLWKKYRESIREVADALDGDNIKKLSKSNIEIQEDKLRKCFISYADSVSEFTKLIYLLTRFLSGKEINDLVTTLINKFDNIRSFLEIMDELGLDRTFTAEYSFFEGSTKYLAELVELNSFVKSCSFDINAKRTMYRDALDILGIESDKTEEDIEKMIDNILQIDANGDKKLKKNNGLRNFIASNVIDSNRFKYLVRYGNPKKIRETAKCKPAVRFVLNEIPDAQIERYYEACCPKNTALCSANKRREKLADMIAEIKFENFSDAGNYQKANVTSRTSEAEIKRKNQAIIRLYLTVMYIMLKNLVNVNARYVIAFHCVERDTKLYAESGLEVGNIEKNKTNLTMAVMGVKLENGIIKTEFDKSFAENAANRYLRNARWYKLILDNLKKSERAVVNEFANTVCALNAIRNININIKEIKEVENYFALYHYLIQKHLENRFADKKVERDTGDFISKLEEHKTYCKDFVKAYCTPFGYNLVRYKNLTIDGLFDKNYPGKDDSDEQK
# experiment: crRNA (strand 1, pre-loaded); Mg2+; 40 mM Tris-HCl pH 7.5, 150 mM NaCl, 6 mM MgCl2, 1 mM DTT, 0.1% Tween-20, 0.2 mg/ml BSA; 25 C; 10 min per concentration, then washed
# conditionDetails: tags: His6-TwinStrep-SUMO cleaved; N-terminal SNAP kept (SNAP-Surface 488); label: 3' end held by stalled T7 RNA polymerase
Measured Kd accompanies every entry in the list below.
propertyMeasured: Kd (nM)

>>> datavalue("target 3 insC 3' of 22,insU 3' of 5 (mixed) RNA 1: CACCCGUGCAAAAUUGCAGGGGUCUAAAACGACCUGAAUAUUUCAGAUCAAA RNA 2: GGGAAUGGAUCCACAUCUACGAAUUCGUUUCUUGAUCUGAAAUAUUCAUGGUCUGCAGAUCGGAAGAGCACACGU")
12.3
>>> datavalue("target 1 U10A,U19C (mixed) RNA 1: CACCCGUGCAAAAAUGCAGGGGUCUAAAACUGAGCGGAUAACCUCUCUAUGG RNA 2: GGGAAUGGAUCCACAUCUACGAAUUCGUACCACAGAGAGGUAAUCCGCUCACCGAGAUCGGAAGAGCACACGU")
35
>>> datavalue("target 3 insU 3' of 22,insC 3' of 5 (mixed) RNA 1: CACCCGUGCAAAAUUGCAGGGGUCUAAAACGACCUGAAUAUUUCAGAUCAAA RNA 2: GGGAAUGGAUCCACAUCUACGAAUUCGUUUUUUGAUCUGAAAUAUUCACGGUCUGCAGAUCGGAAGAGCACACGU")
24.1
>>> datavalue("target 3 del1,del22 (mixed) RNA 1: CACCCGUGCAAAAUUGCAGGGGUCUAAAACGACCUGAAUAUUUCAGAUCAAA RNA 2: GGGAAUGGAUCCACAUCUACGAAUUCGUUUUGAUCUGAAAUAUUCAGGUUGCAGAUCGGAAGAGCACACGU")
29

Recorded values, source paper PMC10786891.
